Give measured IC50 for each item. Keep answers brief.
# Measured On: SARM1 SAM-TIR (Homo sapiens, UniProt Q6SZW1)
# Construct: a fragment of the SARM1 molecule encompassing the SAM and TIR domains; made in house; host or cells: NRK1-HEK293T cells, transiently transfected; the cleared, unpurified lysate was used as the enzyme
# Sequence (Q6SZW1 409-724 limits assumed): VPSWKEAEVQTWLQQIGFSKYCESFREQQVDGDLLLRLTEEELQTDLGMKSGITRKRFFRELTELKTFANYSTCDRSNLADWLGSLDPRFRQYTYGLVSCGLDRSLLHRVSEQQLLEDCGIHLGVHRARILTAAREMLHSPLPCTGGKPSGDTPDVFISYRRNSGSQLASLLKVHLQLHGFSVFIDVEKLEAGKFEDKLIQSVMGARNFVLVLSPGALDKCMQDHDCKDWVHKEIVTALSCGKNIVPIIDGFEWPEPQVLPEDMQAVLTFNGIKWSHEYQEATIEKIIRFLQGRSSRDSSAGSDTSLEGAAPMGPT
# Test Details: biochemical;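 further: inhibition of SARM1 SAM-TIR NADase activity, i.e. NAD+ cleavage, using lysate of NRK1-HEK293T cells overexpressing the SAM-TIR fragment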
# Condition Description: SAM-TIR lysate 5 μg/mL, 2 h pre-incubation, 5 μM NAD+, RapidFire MS of NAD+ and ADPR; read-out: SARM1 IC50

Given the compound COCCn1sc(Nc2cccc(Cl)c2Cl)c(C(=N)N2CCOCC2)c1=O and test system SARM1 SAM-TIR (Homo sapiens, UniProt Q6SZW1), the measured IC50 is < 1000 nM

Given the compound N#Cc1c(Nc2ccccc2C(F)(F)F)sn(Cc2n[nH]c3ccccc23)c1=O and test system SARM1 SAM-TIR (Homo sapiens, UniProt Q6SZW1), the measured IC50 is < 1000 nM

Given the compound Cn1sc(Nc2cccc3ncccc23)c(C#N)c1=O and test system SARM1 SAM-TIR (Homo sapiens, UniProt Q6SZW1), the measured IC50 is < 1000 nM

Given the compound N#Cc1c(Nc2cccc(-c3ccc4cc[nH]c4c3)c2C(F)(F)F)s[nH]c1=O and test system SARM1 SAM-TIR (Homo sapiens, UniProt Q6SZW1), the measured IC50 is > 5000 nM

Given the compound Cn1sc(Nc2ccccc2Cl)c(C(=N)N2CCOCC2)c1=O and test system SARM1 SAM-TIR (Homo sapiens, UniProt Q6SZW1), the measured IC50 is < 1000 nM
